Provenance of the data: paper PMC9896810

Biological target: T1, C3G full-length wild type (human, isoform a, residues 4-1077) (human, UniProt Q13905-1 4-1077)
T1 sequence (looked up): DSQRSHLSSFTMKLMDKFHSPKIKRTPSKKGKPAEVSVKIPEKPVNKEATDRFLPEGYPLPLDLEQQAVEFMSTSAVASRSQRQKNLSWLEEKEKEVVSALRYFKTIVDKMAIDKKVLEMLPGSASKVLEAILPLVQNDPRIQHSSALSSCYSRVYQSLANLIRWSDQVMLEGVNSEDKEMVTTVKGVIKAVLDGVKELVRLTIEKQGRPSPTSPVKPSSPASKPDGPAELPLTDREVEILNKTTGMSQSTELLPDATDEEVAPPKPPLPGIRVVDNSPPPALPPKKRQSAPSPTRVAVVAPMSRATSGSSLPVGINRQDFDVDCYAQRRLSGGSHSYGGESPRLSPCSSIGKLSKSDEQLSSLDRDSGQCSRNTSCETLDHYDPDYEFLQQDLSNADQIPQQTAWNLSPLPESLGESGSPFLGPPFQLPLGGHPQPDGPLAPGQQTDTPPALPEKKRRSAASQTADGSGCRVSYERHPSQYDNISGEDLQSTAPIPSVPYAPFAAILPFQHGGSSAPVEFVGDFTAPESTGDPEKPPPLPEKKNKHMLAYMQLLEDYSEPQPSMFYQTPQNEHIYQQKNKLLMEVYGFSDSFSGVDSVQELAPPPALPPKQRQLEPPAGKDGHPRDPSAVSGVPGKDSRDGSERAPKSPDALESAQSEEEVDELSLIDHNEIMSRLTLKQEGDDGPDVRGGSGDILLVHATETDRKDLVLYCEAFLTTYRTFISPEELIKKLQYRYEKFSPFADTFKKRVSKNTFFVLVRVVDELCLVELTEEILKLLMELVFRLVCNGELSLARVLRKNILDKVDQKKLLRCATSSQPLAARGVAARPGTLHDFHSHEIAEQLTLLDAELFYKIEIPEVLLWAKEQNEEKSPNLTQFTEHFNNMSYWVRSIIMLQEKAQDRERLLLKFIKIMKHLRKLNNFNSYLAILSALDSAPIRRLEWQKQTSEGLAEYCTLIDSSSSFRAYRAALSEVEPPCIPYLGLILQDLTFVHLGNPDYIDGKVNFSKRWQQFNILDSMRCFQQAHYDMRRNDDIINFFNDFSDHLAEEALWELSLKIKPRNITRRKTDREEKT
Assay: cell-based or functional assay
Readout kind: kmax of the dose-response activation of the GEF activity of C3G (1 µM) on Rap1b:mant-dGDP
Please state the number and follow it with the unit.

Look up and state reported kmax of the dose-response activation of the GEF activity of C3G (1 µM) on Rap1b:mant-dGDP for CrkL, full-length (human) (natural protein, UniProt P46109 1-303, looked up, Monomer by sedimentation velocity and DLS (theoretical mass 33.7 kDa); Purification 'in a similar manner' as C3G would include TEV cleavage of the tag; also called Crk-like protein; wild type CrkL; source: E. coli BL21 (DE3), purified (His-tagged, purified in a similar manner as C3G)) MSSARFDSSDRSAWYMGPVSRQEAQTRLQGQRHGMFLVRDSSTCPGDYVLSVSENSRVSHYIINSLPNRRFKIGDQEFDHLPALLEFYKIHYLDTTTLIEPAPRYPSPPMGSVSAPNLPTAEDNLEYVRTLYDFPGNDAEDLPFKKGEILVIIEKPEEQWWSARNKDGRVGMIPVPYVEKLVRSSPHGKHGNRNSNSYGIPEPAHAYAQPQTTTPLPAVSGSPGAAITPLPSTQNGPVFAKAIQKRVPCAYDKTALALEVGDIVKVTRMNINGQWEGEVNGRKGLFPFTHVKIFDPQNPDENE
13400 M⁻¹ s⁻¹
